Test system: NCIH1755 pERK
Experiment: Phospho-ERK inhibition, AlphaLISA SureFire Ultra p-ERK 1/2
Assay type: cell-based, human
Conditions: Table D-2; % Ymin of pERK IC50 curve
MEASURED_METRIC: Ymin of pERK inhibition curve (%)

[[record]]
smi = "Cc1c(F)cccc1S(=O)(=O)Nc1ccc(F)c(Nc2ncnc3cnc(-n4cc(C(=O)N(C)Cc5ccncc5)c5ccccc54)nc23)c1F"
value_reported = "(9) %"


----------
System: HCT116 pERK
Assay: Phospho-ERK inhibition, AlphaLISA SureFire Ultra p-ERK 1/2
Format: cell-based, human
Conditions: Table 3; lowest value of the pERK IC50 curve
MEASURED_METRIC: HCT116 (Ymin %)
Reply with just the number (in %).

Q. What does the record list as HCT116 (Ymin %) for O=S(=O)(Nc1ccc(F)c(Nc2ncnc3cnc(-n4cnc5c(N6CC(CF)C6)cccc54)nc23)c1F)c1cccc(Cl)c1Cl ?
A. −16

Q. Can you look up the measured HCT116 (Ymin %) of O=S(=O)(Nc1ccc(F)c(Nc2ncnc3cnc(-n4nnc5c(N6CCC7(CCCO7)CC6)cccc54)nc23)c1F)c1cccc(Cl)c1Cl for me?
A. 1

Q. Item CO[C@@H]1CCN(S(=O)(=O)Nc2ccc(F)c(Nc3ncnc4cnc(-n5nnc6ccccc65)nc34)c2F)C1 has what recorded HCT116 (Ymin %)?
A. 20

Q. Which HCT116 (Ymin %) value is on record for COc1ccc(S(=O)(=O)Nc2ccc(F)c(Nc3ncnc4cnc(N5CCC(O)C5)nc34)c2F)cc1 (centres unmarked) [Example 42] ?
A. −2

Q. What value of HCT116 (Ymin %) has been reported for the following compound? N#CC1CCN(c2cccc3c2ncn3-c2ncc3ncnc(Nc4c(F)ccc(NS(=O)(=O)c5cccc(Cl)c5Cl)c4F)c3n2)CC1
A. −4
